Assay: yeast display, Sf9 membrane polyspecificity reagent, FACS + sequencing; frameworks hold sequencing errors
Observed property: polyreactivity (PSR sort gate)

1) QDQLVESGGGLVQAGGSLRLSCAASGSTFWFYAMGWSRQAPGKEWELVAVISNSGSTYYADSVKGRFTISRDNAKNTVYLQLNSLKPEDTAVYYCNTDGGGDSYWYDYWGQGTQVTVSS | low polyreactivity
2) QVQLQESGGGLVQAGGSLRLSCAASGSISRLDYRGWYRQASGKERELVAAIDNGSTTYYADSVKGRLTISRDNAKYTVYLQMNSLKPEDTAVYFCAAVRGRGGTHAYWGQGTQVTVSG | low polyreactivity
3) QVQLVESGGGLVQAGGSLRLSCAASGSISYKYVMGWYRQAPGKEREFVASITRIGGSTYYADSVKGRFTISRDNAKNTVYLQMNSLKPEDTAVYYCARDYDYWSWPSAYDYWGQGTQVTVSS | low polyreactivity
4) QVQLVESGGGLVQAGGSLRLSCAASGSIIQYYAMGWYRQAPGKERELVASITWSGGSTYYADSVKGRFTISRDNAKNTVFLQMNSLKPEDTAVYYCAKRLYLKTWAASTADDYWGQGTQVTVSS | low polyreactivity

src = the nanobody polyreactivity screen of Harvey et al. (2022)
